Target: human ErbB2 ECD-myc/His fusion protein (human)
Test: SPR, medium resolution Biacore 2000; mAb captured on goat anti-human IgG, ErbB2(ECD)-cMyc/His injected; 1:1 fit
QUANTITY MEASURED: koff (s⁻¹)
Respond with the bare value in s⁻¹.

BINDER	koff (s⁻¹)
monoclonal antibody 1.39 (antibody, V domains shown) VH: QLQLQESGPGLVKPSETLSLTCTVSGGSISSSTYYWGWIRQPPGKGLEWIGTIYYSGSTYYNPSLKSRVTISVDTSKNQFSLKLNSVTAADTAVYYCARHHWVFDYWGQGTLVTVSS VL: EIVLTQSPDFLSVTPKEKVTITCRASQIIGSSLHWYQQKPDQSPKLLIKYASQSFSGVPSRFSGSGSGTDFTLTLNSLEAEDAATYYCHQSTILPWTFGQGTKVEIK	0.000236

State the recorded koff for this entry: monoclonal antibody 1.14.1 (antibody, V domains shown) VH: QLQLQESGPGLVKPSETLSLTCTVSGDSISSFIYYWGWIRQPPGKGLEWIGTIYYSGSTYYNPSLKSRVTISVDTSKNQFSLKLRSVTAADTAVYYCARHHWVFDYWGQGTQVTVSS VL: DIVLTQFPDFQSVTPKEKVTITCRASQVIGSSLHWYQQKPDQSPKLLIKYASQSFSGVPSRFSGSGSGTDFTLTINSLEVEDAATYYCHQSTILPWTFGQGTKVEVK
0.000256
